Provenance of the data: paper PMC5540273

Test system: PHKG1
assayContext: concentration: 1 μM, replicates: in singlicate; n = 1;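 further: KINOMEscan kinase panel screen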
Catalogue of %Inh readings, one per entry.
Your answer is read as %, so omit the unit and give the number.

Solved entries (count: 5):
| smilesText | readoutValue |
| --- | --- |
| COc1cc(Nc2ccnc3ccc(C(F)(F)F)cc23)cc(OC)c1OC | 3 |
| Cc1nn2c(=O)cc(N3CCOCC3)nc2n1Cc1cccc(Cl)c1Cl | 7 |
| COc1cc2ncn(-c3cc(OCc4ccncc4Br)c(C(N)=O)s3)c2cc1OC | 8 |
| CCC(=O)c1c(-c2ccccc2)c2cc(Cl)ccc2c(=O)n1Cc1cc(S(C)(=O)=O)n(CC(N)=O)n1 | 0 |
| Nc1ncnc2c1ncn2-c1cccc(F)c1 | 5 |

### Prompt Given the compound O=C(Nc1n[nH]c2cc(-c3ccccc3F)ccc12)C1CC1 , what is its reported %Inh?
### Response 0

### Prompt # query: %Inh of entry Cc1c(Cn2c(C)nn3c(=O)cc(N4CCO[C@H](C)C4)nc23)cccc1C(F)(F)F
### Response 3

### Prompt So what does the record say about %Inh for Cc1cc(Nc2nc(-c3cccc(C)n3)nc3ccccc23)ccn1 ?
### Response 0

### Prompt Which %Inh is listed for O=C(Nc1ccc2c(c1)OCO2)NC1CCN(c2ccnc(NCc3ccc(F)cc3)n2)CC1 ?
### Response 0

----------
System: JAK1(JH1domain-catalytic)
assayContext: concentration: 1 μM, replicates: in singlicate; n = 1
%Inh values by entry
Entry rule: numbers only, all in %.

Some solved cases for reference:
| compound | systemUnderTest | outputUnit | %Inh |
| --- | --- | --- | --- |
| O=c1cc(N2CCOCC2)nc2n(Cc3ccc(F)c(Cl)c3)ccn12 | JAK1(JH1domain-catalytic) | % | 19 |
| COc1cc2ncn(-c3cc(OCc4ccncc4)c(C(N)=O)s3)c2cc1OC | JAK1(JH1domain-catalytic) | % | 6 |
| CN1C(=O)C(Nc2cc(Cl)c(O)c(Cl)c2)=C(c2ccc(Cl)cc2)C1=O | JAK1(JH1domain-catalytic) | % | 13 |
| CCC(=O)c1c(-c2ccccc2)c2cc(Cl)ccc2c(=O)n1Cc1cc(S(C)(=O)=O)n(CC(F)F)n1 | JAK1(JH1domain-catalytic) | % | 2 |
| CCn1c(-c2nonc2N)nc2ccccc21 | JAK1(JH1domain-catalytic) | % | 8 |
| OCCCNc1nccc(-c2c(-c3cccc(C(F)(F)F)c3)nn3cc(C(F)(F)F)ccc23)n1 | JAK1(JH1domain-catalytic) | % | 14 |

### Prompt # input compound: Cc1nnc(-c2ccc3ncn(-c4ccc(S(C)=O)cc4)c3c2)o1 (stereo not drawn) ; wanted: its %Inh
### Response 33

### Prompt # query: %Inh of entry CCS(=O)c1ccc(-c2coc3ccc(-c4nnc(C)o4)cc23)cc1 (stereo not drawn)
### Response 1

### Prompt Return reported %Inh; argument: COc1cc2ncn(-c3cc(OCc4ccc(S(C)(=O)=O)cc4)c(C(N)=O)s3)c2cc1OC
### Response 2

----------
Overview of recorded %Inh for various compounds
System: TRPM6
assayContext: concentration: 1 μM, replicates: in singlicate; n = 1
Give just the numeric value; % need not be written.

| smilesText | systemUnderTest | %Inh, % |
| --- | --- | --- |
| O=C(Nc1n[nH]c2nc(-c3ccccc3)c(Br)cc12)C1CC1 | TRPM6 | 18 |
| Cc1cccc(-c2nc(Nc3ccc4c(cnn4C)c3)c3ccccc3n2)n1 | TRPM6 | 0 |
| COc1cc2ncn(-c3cc(OCc4ccc(S(C)(=O)=O)cc4)c(C(N)=O)s3)c2cc1OC | TRPM6 | 0 |
| CN1C(=O)C(Nc2cc(Cl)c(O)c(Cl)c2)=C(c2ccc(Cl)cc2)C1=O | TRPM6 | 0 |

### Prompt Entry CCC(=O)c1c(-c2ccccc2)c2cc(Cl)ccc2c(=O)n1Cc1cc(S(C)(=O)=O)n(CCC(C)(C)O)n1 has what %Inh?
### Response 18

### Prompt Could you share which %Inh value was measured for COc1cccc(-n2cnc3c(N)ncnc32)c1 ?
### Response 65

### Prompt Item Cc1cc(Nc2nc(-c3cccc(C)n3)nc3ccccc23)ccn1 has what recorded %Inh?
### Response 0

### Prompt Look up %Inh: FC(F)(F)c1ccc(-c2ncn(CCCN3CCOCC3)c2-c2ccncc2)cc1
### Response 4

### Prompt GET /values?readout=%Inh&item= CCn1c(-c2nonc2N)nc2ccccc21
### Response 0
